FYI, the data here is from the Bradley open melting point set (2014).

Reported melting point by item:

[
  {
    "MOLECULE": "CCOc1ccc(NC(C)=O)cc1 [4-ethoxyacetanilide]",
    "melting point / °C": 135
  },
  {
    "MOLECULE": "Nc1ccc(Cl)cc1[N+](=O)[O-] [4-chloro-2-nitroaniline]",
    "melting point / °C": 116
  },
  {
    "MOLECULE": "CC(=O)Nc1ccc(Br)cc1OC(F)(F)F [4'-bromo-2'-(trifluoromethoxy)acetanilide]",
    "melting point / °C": 136
  },
  {
    "MOLECULE": "O=C1OC(c2ccc(O)c3ccccc23)(c2ccc(O)c3ccccc23)c2ccccc21 [alpha-naphtholphthalein]",
    "melting point / °C": 239
  },
  {
    "MOLECULE": "O=C(O)CCC(=O)O [Succinic acid]",
    "melting point / °C": 186
  },
  {
    "MOLECULE": "CCCCCCCCI [1-iodooctane]",
    "melting point / °C": -44
  },
  {
    "MOLECULE": "O=C(O)C(=O)CBr [bromopyruvic acid]",
    "melting point / °C": 78
  },
  {
    "MOLECULE": "COc1ccccc1O [2-Methoxyphenol]",
    "melting point / °C": 28
  },
  {
    "MOLECULE": "O=C(CC(=O)c1ccccc1)c1ccccc1 [1,3-Diphenylpropane-1,3-dione]",
    "melting point / °C": 77
  },
  {
    "MOLECULE": "FC(F)(F)c1cccc(Cl)n1 [2-chloro-6-(trifluoromethyl)pyridine]",
    "melting point / °C": 29
  },
  {
    "MOLECULE": "COC(=O)c1ccc(C(=O)OC)cc1 [Dimethyl terephthalate]",
    "melting point / °C": 141
  },
  {
    "MOLECULE": "COC(=O)c1cc(C)n(CN(Cn2nc(C(=O)OC)cc2C)c2ccccc2)n1",
    "melting point / °C": 125
  },
  {
    "MOLECULE": "OCCOc1ccccc1 [2-phenoxyethanol]",
    "melting point / °C": 12
  },
  {
    "MOLECULE": "CCCCCCOC(C)=O [N-hexyl acetate]",
    "melting point / °C": -80
  },
  {
    "MOLECULE": "OB(O)c1cc2ccccc2nc1Br [2-bromoquinoline-3-boronic acid]",
    "melting point / °C": 146
  },
  {
    "MOLECULE": "Cc1cc(C)c(C)c(Br)c1C [1-bromo-2,3,5,6-tetramethylbenzene]",
    "melting point / °C": 60
  },
  {
    "MOLECULE": "Cc1c(C)c(C#N)c2ccccc2c1C#N [2,3-dimethylnaphthalene-1,4-dicarbonitrile]",
    "melting point / °C": 263
  },
  {
    "MOLECULE": "[O-][n+]1ccccc1Cl [2-chloropyridine n-oxide]",
    "melting point / °C": 69
  },
  {
    "MOLECULE": "Nc1nc(-c2ccc(Br)cc2)cs1 [2-amino-4-(4-bromophenyl)thiazole]",
    "melting point / °C": 184
  },
  {
    "MOLECULE": "c1ccc(-c2nc3ccccc3[nH]2)cc1 [2-phenylbenzimidazole]",
    "melting point / °C": 297
  },
  {
    "MOLECULE": "BrCCCCCCCCBr [1,8-dibromooctane]",
    "melting point / °C": 16
  }
]
